Test: Peroral toxicity to mammals (rat)
Conditions: in vivo, po, mortality rate of 50 percent, read-out: A. O. Rat LD50
Would you kindly list LD50 for each of these compounds?
Numbers only, in mg/kg.

Smiles: CNC(=O)ON=C1SC(=NN(C)C)SC1(C)C
Units symbol: mg/kg
LD50: 1.8

Smiles: CNC(=O)ON=C1SC(=NC(C)C)SC1(C)C
Units symbol: mg/kg
LD50: 8.9

Smiles: CNC(=O)ON=C1SC(=NC(C)(C)C)SC1(C)C
Units symbol: mg/kg
LD50: 31.5

Smiles: CN(SC(Cl)(Cl)Cl)C(=O)ON=C1SC(=C(C#N)C#N)SC1(C)C
Units symbol: mg/kg
LD50: 538

Smiles: CC(C)N=C1SC(=NOC(=O)N(C)SC(Cl)(Cl)Cl)C(C)(C)S1
Units symbol: mg/kg
LD50: 226

Smiles: CCN=C1SC(=NOC(=O)NC)C(C)(C)S1
Units symbol: mg/kg
LD50: 6.3

Proceed to the following item.
Please look up its LD50: CC(C)N=C1SC(=NOC(=O)N(C)SN(C)C(=O)ON=C2SC(=NC(C)C)SC2(C)C)C(C)(C)S1
113
